Recorded values, source patent US6544996B2.

# TGT: recombinantly produced D2 receptors from human (COS cells) (Homo sapiens)
# Sequence (P14416 whole entry): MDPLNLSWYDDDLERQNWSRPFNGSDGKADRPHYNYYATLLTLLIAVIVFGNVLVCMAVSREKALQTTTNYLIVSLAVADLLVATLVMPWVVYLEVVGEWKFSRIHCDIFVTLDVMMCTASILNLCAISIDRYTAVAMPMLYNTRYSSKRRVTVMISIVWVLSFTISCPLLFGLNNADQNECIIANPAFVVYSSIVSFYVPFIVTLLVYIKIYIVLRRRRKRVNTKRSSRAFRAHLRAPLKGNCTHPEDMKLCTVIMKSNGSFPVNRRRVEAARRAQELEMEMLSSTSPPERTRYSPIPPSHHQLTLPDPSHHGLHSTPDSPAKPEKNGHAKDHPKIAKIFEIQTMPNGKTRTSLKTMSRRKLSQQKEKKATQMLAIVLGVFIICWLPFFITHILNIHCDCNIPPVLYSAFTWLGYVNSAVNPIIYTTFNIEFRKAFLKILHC
# TEST PROTOCOL: biochemical
# CONDITION NOTES: COS cell pellets, 0.5 nM 3H-YM 09151-2
QUANTITY NAME: pKi
Please keep in mind that pKi is minus log10 of the molar concentration; only the number is needed.

Provide pKi value for the following compound: Clc1ccc([C@H]2C[C@@H]2CN2CCN(c3ccc(Cl)cc3)CC2)cc1 (relative stereo) [Compound 3]
6.28

###

# TGT: recombinantly produced D4 receptors from human (COS cells) (Homo sapiens, UniProt P21917)
# Sequence (P21917 whole entry): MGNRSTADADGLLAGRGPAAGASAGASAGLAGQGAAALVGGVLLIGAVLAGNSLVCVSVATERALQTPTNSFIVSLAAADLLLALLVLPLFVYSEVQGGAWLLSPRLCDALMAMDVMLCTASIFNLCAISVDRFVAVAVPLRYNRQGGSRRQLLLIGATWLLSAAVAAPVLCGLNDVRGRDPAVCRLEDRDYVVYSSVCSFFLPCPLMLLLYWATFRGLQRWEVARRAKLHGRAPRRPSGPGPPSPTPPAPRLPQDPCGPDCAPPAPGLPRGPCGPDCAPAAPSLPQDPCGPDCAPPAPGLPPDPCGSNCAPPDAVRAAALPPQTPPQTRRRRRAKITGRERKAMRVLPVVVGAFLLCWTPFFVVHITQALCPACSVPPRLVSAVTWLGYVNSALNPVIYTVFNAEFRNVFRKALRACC
# TEST PROTOCOL: Determination of D4 receptor binding activity (3H-YM 09151-2 displacement)
QUANTITY NAME: Ki
Your answer should be a number followed by the unit of measure.

Provide Ki value for the following compound: Clc1ccc([C@H]2C[C@@H]2CN2CCN(c3ccc(Cl)cc3)CC2)cc1 (relative stereo)
8 nM
